# measurement.target: human GLP-1 receptor (GLP-1R) (human, UniProt P43220 24-463)
# experiment.summary: cell-based or functional assay
Listing: hGLP1R cAMP Rel EC50 of selected binders
Reply with the number, then its unit.

Enquiry: Specify measured hGLP1R cAMP Rel EC50 for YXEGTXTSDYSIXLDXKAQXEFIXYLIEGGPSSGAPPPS (Aib2, αMeF(2F)6, Aib13, Orn16, (2-[2-(2-Amino-ethoxy)-ethoxy]-acetyl)2-(γ-Glu)-CO-(CH2)18-CO2H on K17, Aib20, D-Glu24, C-terminal NH2) [Example 250] .
Return: 0.0306 nM

Enquiry: Identify the reported hGLP1R cAMP Rel EC50 for the following entry. YXEGTXTSDXSIXLDXKAQXEFIXXLIEGG (Aib2, αMeF(2F)6, 4Pal10, αMeF13 (so in the source), Orn16, (2-[2-(2-Amino-ethoxy)-ethoxy]-acetyl)2-(γ-Glu)-CO-(CH2)16-CO2H on K17, Aib20, D-Glu24, αMeY25, C-terminal NH2) [Example 265]
Return: 0.0223 nM

Enquiry: Identify measured hGLP1R cAMP Rel EC50 corresponding to XXEGTFTSDYSIXLDXKAQXEFIXYLIEGGPSSGAPPPS (D-Tyr1, Aib2, αMeL13, Orn16, (2-[2-(2-Amino-ethoxy)-ethoxy]-acetyl)2-(γ-Glu)-CO-(CH2)18-CO2H on K17, Aib20, D-Glu24, C-terminal NH2) [Example 355]
Return: 0.896 nM

Enquiry: Specify reported hGLP1R cAMP Rel EC50 for the binder shown: FXEGTFTSDYSIXLDKKAQXAFIEYLIEAGPSSGAPPPS (Aib2, αMeL13, (2-[2-(2-Amino-ethoxy)-ethoxy]-acetyl)2-(γ-Glu)-CO-(CH2)16-CO2H on K17, Aib20, C-terminal NH2) [Example 328]
Return: 0.117 nM

Enquiry: State its hGLP1R cAMP Rel EC50: XXEGTFTSDYSIXLDKKAQXAFIEYLIEGGPSSGAPPPS (not fully specified; D-Tyr1, Aib2, αMeL13, (2-[2-(2-Amino-ethoxy)-ethoxy]-acetyl)2-(γ-Glu)-CO-(CH2)18-CO2H on K17, Aib20, C-terminal NH2) [Example 334]
Return: 0.303 nM

Enquiry: Give the measured hGLP1R cAMP Rel EC50 for YXEGTXTSDYSILLDKKAQXEFIEYLIAGGPSSG (Aib2, αMeF(2F)6, (2-[2-(2-Amino-ethoxy)-ethoxy]-acetyl)2-(γ-Glu)-CO-(CH2)16-CO2H on K17, Aib20, C-terminal NH2) [Example 314]
Return: 0.029 nM

Enquiry: Consider the binder FXEGTFTSDYSIXLDKKAQXAFIEYLIAGGPSSGAPPPS (not fully specified; Aib2, αMeL13, (2-[2-(2-Amino-ethoxy)-ethoxy]-acetyl)2-(γ-Glu)-CO-(CH2)18-CO2H on K17, Aib20, C-terminal NH2) [Example 337] and give its recorded hGLP1R cAMP Rel EC50.
Return: 0.173 nM

Enquiry: For the binder YXEGTFTSDYSILLDKKAQRAFIEYLIEGGPSSGAPPPS (Aib2, (2-[2-(2-Amino-ethoxy)-ethoxy]-acetyl)2-(γ-Glu)-CO-(CH2)18-CO2H on K17, C-terminal NH2) [Example 257] , give its measured hGLP1R cAMP Rel EC50 value.
Return: 0.0779 nM

Enquiry: Note hGLP1R cAMP Rel EC50 for the binder shown: XXEGTFTSDYSIXLDKKAQXAFIEYLIAGGPSSGAPPPS (not fully specified; D-Tyr1, Aib2, αMeL13, (2-[2-(2-Amino-ethoxy)-ethoxy]-acetyl)2-(γ-Glu)-CO-(CH2)18-CO2H on K17, Aib20, C-terminal NH2) [Example 340]
Return: 0.252 nM

Enquiry: Answer with the recorded hGLP1R cAMP Rel EC50 of YXEGTFTSDYSIXLDEKAQXDFIEYLIAGGPSSGAPPPS (Aib2, αMeL13, (2-[2-(2-Amino-ethoxy)-ethoxy]-acetyl)2-(γ-Glu)-CO-(CH2)18-CO2H on K17, Aib20, C-terminal NH2) [Example 344] only.
Return: 0.044 nM

Enquiry: Specify reported hGLP1R cAMP Rel EC50 for the binder shown: YXEGTXTSDYSILLDKKAQXEFIEYLIEGGPSSG (Aib2, αMeF(2F)6, (2-[2-(2-Amino-ethoxy)-ethoxy]-acetyl)2-(γ-Glu)-CO-(CH2)16-CO2H on K17, Aib20, C-terminal NH2) [Example 312]
Return: 0.0262 nM

Enquiry: Give the value of hGLP1R cAMP Rel EC50 reported for the following: YXEGTFTSDYSIXLDEKAQXEFIEYLIAGGPSSGAPPPS (Aib2, αMeL13, (2-[2-(2-Amino-ethoxy)-ethoxy]-acetyl)2-(γ-Glu)-CO-(CH2)18-CO2H on K17, Aib20, C-terminal NH2) [Example 331]
Return: 0.0929 nM

Enquiry: Specify measured hGLP1R cAMP Rel EC50 for YXEGTXTSDYSILLDEKAQXAFIEYLIEGGPSSG (Aib2, αMeF(2F)6, (2-[2-(2-Amino-ethoxy)-ethoxy]-acetyl)2-(γ-Glu)-CO-(CH2)16-CO2H on K17, Aib20, C-terminal NH2) [Example 311] .
Return: 0.0393 nM
